Consider the following compounds; for each one, report its damage to plant (100=total damage to plant; 0=no damage to plant), ELEIN.
Tested on: plants
Protocol Description: Test D post-emergence, other plants of Tables D2 and D4
Type: in vivo
Assay Conditions: post-emergence, ELEIN, rate 130, evaluated after 15 d
Would you mind answering with just the numeric figure?

Query string: Look up damage to plant (100=total damage to plant; 0=no damage to plant), ELEIN for this compound: CN1CC(c2cc(C(F)(F)F)n(C)n2)C(C(=O)Nc2ccc(F)cc2F)C1=O (racemic)
Result string: 0

Query string: CN1CC(c2cc(C(F)(F)F)n(C)n2)C(C(=O)Nc2cccc(F)c2C(F)(F)F)C1=O (racemic) ?
Result string: 10

Query string: Next up: CN1CC(c2cc(C(F)(F)F)n(C)n2)C(C(=O)Nc2ccc(F)c(F)c2F)C1=O (racemic)
Result string: 0

Query string: And CN1CC(c2cc(C(F)(F)F)n(C)n2)C(C(=O)Nc2cccc(F)n2)C1=O (racemic) ?
Result string: 0

* * *

Tested on: plants
Protocol Description: Test D pre-emergence, other plants of Tables D1 and D3
Assay type: in vivo
Assay Conditions: EPHHL; preemergent; rate 250; 20 DAA
Parameter Measured: damage to plant (100=total damage to plant; 0=no damage to plant), EPHHL
Please give only the number in your answer, with no unit.

Query string: Given CCn1nc([C@@H]2CN(C)C(=O)[C@H]2C(=O)Nc2cccc(F)c2F)c2cccc(F)c21 , state its recorded damage to plant (100=total damage to plant; 0=no damage to plant), EPHHL.
Result string: 10

Query string: Item: CCn1nc([C@H]2CN(C)C(=O)[C@@H]2C(=O)Nc2cccc(F)c2F)c2c(F)cccc21
Result string: 10

Query string: Try the molecule CCn1nc([C@H]2CN(C)C(=O)[C@@H]2C(=O)Nc2cccc(F)c2F)c2cc(F)ccc21
Result string: 0

Query string: And for CN1CC(c2cc(C(F)(F)F)n(C)n2)C(C(=O)Nc2ccc(F)cc2C(C)(F)F)C1=O (racemic) ?
Result string: 0

* * *

System: plants
Protocol Description: Test D post-emergence, other plants of Tables D2 and D4
Assay type: in vivo
Assay Conditions: HORVW; "Cereals" Postemergent; Rates 500; evaluated after 15 d
Parameter Measured: HORVW damage rating (100=total damage to plant; 0=no damage to plant)
Kindly provide the number alone.

Query string: I am curious: what HORVW damage rating (100=total damage to plant; 0=no damage to plant) value has been reported for CN1CC(c2cc(C(F)(F)F)n(C)n2)C(C(=O)Nc2cccc(F)c2F)C1=O (racemic) ?
Result string: 30

Query string: Please give the result for CN1CC(c2cc(C(F)(F)F)n(C)n2)C(C(=O)Nc2cccc(F)c2C(F)(F)F)C1=O (racemic) too.
Result string: 40

Query string: // query: CN1CC(c2cc(C(F)(F)F)n(C)n2)C(C(=O)Nc2ccc(F)cc2F)C1=O (racemic)
Result string: 30

Query string: COc1c(F)cccc1NC(=O)C1C(=O)N(C)CC1c1cc(C(F)(F)F)n(C)n1 (racemic) , same question.
Result string: 50

* * *

Test system: ivy-leaved morning glory (Ipomoea hederacea, IPOHE)
Protocol Description: Test A post-emergence, ivy-leaved morning glory
Type: in vivo
Assay Conditions: Post-Emergence at 15.625 g/ha; after 13 d
Parameter Measured: damage to plant (100=total damage; 0=no damage) IPOHE

Query string: Short answer please: damage to plant (100=total damage; 0=no damage) IPOHE, ivy-leaved morning glory (Ipomoea hederacea, IPOHE), entry CCn1nc([C@@H]2CN(C)C(=O)[C@H]2C(=O)Nc2cccc(F)c2F)c2cccc(F)c21 [Compound 14]
Result string: 10

Query string: Further, for CN1CC(c2cc(C(F)(F)F)n(C)n2)C(C(=O)Nc2cccc(F)c2F)C1=O (racemic) [Compound 3] ?
Result string: 0

Query string: Now the same for CCn1nc([C@H]2CN(C)C(=O)[C@@H]2C(=O)Nc2ccc(F)nc2F)c2cccc(F)c21 [Compound 11]
Result string: 0

Query string: Now try CCc1ccccc1NC(=O)C1C(=O)N(C)CC1c1cc(C(F)(F)F)n(C)n1 (racemic) [Compound 20] .
Result string: 0

Query string: What do you have for CN1CC(c2cc(C(F)(F)F)n(C)n2)C(C(=O)Nc2cccc(F)c2OC(F)(F)F)C1=O (racemic) [Compound 16] ?
Result string: 0

Query string: Another compound: CCn1nc(C2CN(C)C(=O)C2C(=O)Nc2cccc(F)c2F)c2cccc(F)c21 (centres unmarked) [Compound 15]
Result string: 0

Query string: How about CN1CC(c2cc(Cl)n(C)n2)C(C(=O)Nc2ccc(F)c(F)c2F)C1=O (racemic) [Compound 31] ?
Result string: 20

Query string: And the next one, CN1CC(c2nn(C)c(Cl)c2Br)C(C(=O)Nc2ccc(F)c(F)c2F)C1=O (racemic) [Compound 32] ?
Result string: 0
